# Test system: cancer cell lines from the cancer cell line encyclopedia (CCLE)
# Experimental Details: Cell line profiling (CLiP) proliferation experiment
# Format: cell-based
# Measurement Setup: Homo sapiens, OV-90, cell line OV-90; read-out: Crossing Point
Metric: IC50

CC(C)[C@@]12C[C@@H](O)[C@@](C)(O1)[C@@H]1CC[C@@H](C)[C@H]1[C@@H]2OC(=O)/C=C/c1ccccc1 [Englerin B]
> 30 µM

* * *

# System: cancer cell lines from the cancer cell line encyclopedia (CCLE)
# Experimental Details: Cell line profiling (CLiP) proliferation experiment
# Type: cell-based
# Measurement Setup: cell line BICR 22; upper_aerodigestive_tract; squamous_cell_carcinoma; read-out: Crossing Point
Metric: IC50 (µM)

CC(C)[C@@]12C[C@@H](O)[C@@](C)(O1)[C@@H]1CC[C@@H](C)[C@H]1[C@@H]2OC(=O)/C=C/c1ccccc1 [Englerin B]
18.8
